experimentalTarget: T1, SARS-CoV-2 S2 (aa686-1208) (Wuhan) (SARS-CoV-2 Wuhan, UniProt P0DTC2 686-1208)
T1 construct: NRC; FLAG, 6xHis tags
runDescription: SPR, antigen on chip
parameter: kon (M⁻¹ s⁻¹)
Could you give me the number in M⁻¹ s⁻¹? Just the number is fine.

Data request, read-out kon, for NRCoV2-S2A4 VHH (VHH) VHH: QVQLVQSGGGLVQAGGSLRLSCAVSGSPFRSNVMEWYRQAPGKQRELVASISTGGSRTYTDSVKGRFTISRDNAKNEAFLQMNSLKPEDTAVYYCHAAARDSHGIYLLDTWGQGTQVTVSS
28100

Ok, now NRCoV2-S2G3 VHH (VHH) VHH: QVQLVQSGGGSVQAGGSLRLSCAASGSTFGIFLMGWRRQAPGKQRELVAHITSGGATNYADSVKGRFTISRDNAKNTVYLQMNSLEPEDTAVYYCYTTKRDDASVYWGQGTQVTVSS
147000

Then this binder: NRCoV2-S2F3 VHH (VHH) VHH: EVQLVQSGGGLVQAGGSLRLSCATSVRILSVPAMGWYRQAPGKEREMVAVITSGGSTNYADSVKGRFTISRDNAKNTVYLQMNSLKLEDTAVYQCNLRDILSQPFWGQGTQVTVSS
101000

Repeat with NRCoV2-S2G4 VHH (VHH) VHH: QVQLVQSGGGLVQAGGSLTLSCAPSGSTFSGYATNWYRQAPGKQRELVATISSDGDKNYADSVKGRFTISRDNAKNTVYLQMNSLKPEDTAVYYCNKHWWTGDWWGQGTQVTVSS
925000

All values here come from patent US20240270826A1.
